Numbers sourced from patent US11931431B2.

# Tested on: PSMA^+ PC-3 PIP tumors
# assay explanation: MicroPET/CT imaging of mice transplanted with prostate cancer cell lines
# Assay type: in vivo, nude mouse
# settings: 40 min after injection
# Protocol: A tumor model was prepared by subcutaneously injecting PSMA^+ PC-3 PIP cells (a human prostate cancer cell line) to the right side of the nude mouse hind leg. […] The obtained PET/CT image results were quantitatively analyzed using Inveon™ Research Workplace (IRW). FIGS. 1, 2, 3, and 4 are graphs showing the quantitative analysis results of MicorPET/CT images for [^68Ga]1e, [^68Ga]1g, [^68Ga]1h, and [^68Ga]1k in % injected dose (ID)/g, and summarized in Tables 3, 4, 5, and 6, respectively.
property: intake of mouse organ: Bladder
Quick note: number first, unit second.

May I ask what intake of mouse organ: Bladder has been recorded for O=C(O)CCC(NC(=O)NC(CCCCN(CC(=O)O)C(=O)COCCNC(=O)C(CCCCNC(=O)CCCc1ccc(I)cc1)NC(=O)CN1CCN2CCN3CCN(CC1)CC(=O)[O][68Ga]([O]C(=O)C2)[O]C(=O)C3)C(=O)O)C(=O)O (stereo not shown) [[^68Ga]1k] ?
4.75 ± 0.21 % ID/g

May I ask what intake of mouse organ: Bladder has been recorded for O=C(O)CCC(NC(=O)NC(CCCCN(CC(=O)O)C(=O)COCCOCCNC(=O)C(CCCCNC(=O)CCCc1ccc(I)cc1)NC(=O)CN1CCN2CCN3CCN(CC1)CC(=O)[O][68Ga]([O]C(=O)C2)[O]C(=O)C3)C(=O)O)C(=O)O (stereo not shown) [[^68Ga]1h] ?
4.52 ± 0.97 % ID/g

May I ask what intake of mouse organ: Bladder has been recorded for O=C(O)CCC(NC(=O)NC(CCCCN(CC(=O)O)C(=O)COCCOCCNC(=O)CN1CCN2CCN3CCN(CC1)CC(=O)[O][68Ga]([O]C(=O)C2)[O]C(=O)C3)C(=O)O)C(=O)O (stereo not shown) [[^68Ga]1e] ?
60.63 ± 15.48 % ID/g

New cases:
May I ask what intake of mouse organ: Bladder has been recorded for Cc1ccc(CCCC(=O)NCCCCC(NC(=O)CN2CCN3CCN4CCN(CC2)CC(=O)[O][68Ga]([O]C(=O)C3)[O]C(=O)C4)C(=O)NCCOCCOCC(=O)N(CCCCC(NC(=O)NC(CCC(=O)O)C(=O)O)C(=O)O)CC(=O)O)cc1 (stereo not shown) [[^68Ga]1g] ?
18.89 ± 8.84 % ID/g

* * *

# Test system: PSMA^+ PC-3 PIP tumors
# assay explanation: MicroPET/CT imaging of mice transplanted with prostate cancer cell lines
# Type: in vivo, nude mouse
# settings: 40 min after injection
The compounds listed here are annotated with their intake of mouse organ: Liver.

Solved cases below.
May I ask what intake of mouse organ: Liver has been recorded for Cc1ccc(CCCC(=O)NCCCCC(NC(=O)CN2CCN3CCN4CCN(CC2)CC(=O)[O][68Ga]([O]C(=O)C3)[O]C(=O)C4)C(=O)NCCOCCOCC(=O)N(CCCCC(NC(=O)NC(CCC(=O)O)C(=O)O)C(=O)O)CC(=O)O)cc1 (stereo not shown) [[^68Ga]1g] ?
5.38 ± 0.22 % ID/g

May I ask what intake of mouse organ: Liver has been recorded for O=C(O)CCC(NC(=O)NC(CCCCN(CC(=O)O)C(=O)COCCOCCNC(=O)CN1CCN2CCN3CCN(CC1)CC(=O)[O][68Ga]([O]C(=O)C2)[O]C(=O)C3)C(=O)O)C(=O)O (stereo not shown) [[^68Ga]1e] ?
1.00 ± 0.03 % ID/g

New cases:
May I ask what intake of mouse organ: Liver has been recorded for O=C(O)CCC(NC(=O)NC(CCCCN(CC(=O)O)C(=O)COCCNC(=O)C(CCCCNC(=O)CCCc1ccc(I)cc1)NC(=O)CN1CCN2CCN3CCN(CC1)CC(=O)[O][68Ga]([O]C(=O)C2)[O]C(=O)C3)C(=O)O)C(=O)O (stereo not shown) [[^68Ga]1k] ?
9.31 ± 2.32 % ID/g

May I ask what intake of mouse organ: Liver has been recorded for O=C(O)CCC(NC(=O)NC(CCCCN(CC(=O)O)C(=O)COCCOCCNC(=O)C(CCCCNC(=O)CCCc1ccc(I)cc1)NC(=O)CN1CCN2CCN3CCN(CC1)CC(=O)[O][68Ga]([O]C(=O)C2)[O]C(=O)C3)C(=O)O)C(=O)O (stereo not shown) [[^68Ga]1h] ?
8.86 ± 0.35 % ID/g
